assay_protocol: Solubility in PBS solution (pH 7.4) at room temperature
Format: physicochemical
measurement_parameters: PBS solution (pH 7.4), aqueous buffer, kinetic from dmso stock; PBS pH 7.4, room temperature, 24 hours shaking, 1% DMSO, average of two measurements; read-out: Solubility in PBS pH7.4
measured_parameter: solubility at 24 h
Don't forget the unit after the number, please.

smiles_structure=Cc1cc(F)ccc1Oc1cc(C(F)(F)F)c(Cl)cc1C(=O)Nc1cnn(COS(=O)(=O)O)c(=O)c1 measured_parameter="solubility at 24 h" measured_result="707 µM"
smiles_structure=[2H]C([2H])([2H])Oc1cc(F)ccc1Oc1cc(C(F)(F)F)c(Cl)cc1C(=O)Nc1cnn(COS(=O)(=O)O)c(=O)c1 measured_parameter="solubility at 24 h" measured_result="96.2 µM"
smiles_structure=[2H]C([2H])([2H])Oc1cc(F)ccc1Oc1cc(C(F)(F)F)c(Cl)cc1C(=O)Nc1cn[nH]c(=O)c1 measured_parameter="solubility at 24 h" measured_result="1.26 µM"
smiles_structure=Cc1cc(F)ccc1Oc1cc(C(F)(F)F)c(Cl)cc1C(=O)Nc1cn[nH]c(=O)c1 measured_parameter="solubility at 24 h" measured_result="0.5 µM"
smiles_structure=COc1cc(F)ccc1Oc1cc(C(F)(F)F)c(Cl)cc1C(=O)Nc1cnn(COC(=O)CCC(=O)O)c(=O)c1 measured_parameter="solubility at 24 h" measured_result="44.9 µM"

Look up and report measured solubility at 24 h for this entry: COc1cc(F)ccc1Oc1cc(C(F)(F)F)c(Cl)cc1C(=O)Nc1cn[nH]c(=O)c1
0.44 µM

Look up and report measured solubility at 24 h for this entry: Cc1cc(F)ccc1Oc1cc(C(F)(F)F)c(Cl)cc1C(=O)Nc1cnn(COC(=O)CC(=O)O)c(=O)c1
147 µM
